# Experimental system: T1, Rhesus macaque CD4-HIS (Acro Biosystems, Cat. CD4-C52H7) (rhesus macaque, UniProt P16003 26-390)
# T1 construct: Bought reagent; also called Rhesus CD4; rhesus CD4-HIS; not shown: His tag
# T1 sequence (P16003 26-390 limits assumed): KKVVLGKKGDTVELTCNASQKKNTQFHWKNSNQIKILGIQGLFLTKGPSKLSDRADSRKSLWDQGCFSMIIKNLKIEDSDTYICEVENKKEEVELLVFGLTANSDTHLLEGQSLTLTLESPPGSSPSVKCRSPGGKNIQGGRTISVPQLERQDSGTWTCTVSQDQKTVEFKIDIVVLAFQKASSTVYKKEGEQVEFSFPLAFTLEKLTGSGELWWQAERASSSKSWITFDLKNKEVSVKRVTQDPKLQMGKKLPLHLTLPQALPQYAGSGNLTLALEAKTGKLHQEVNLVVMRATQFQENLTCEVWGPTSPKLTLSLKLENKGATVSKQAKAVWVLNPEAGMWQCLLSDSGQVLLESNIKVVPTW
# Protocol summary: BLI (Octet Red384); Ab on anti-mouse Fc (AMC) sensor; rhesus CD4-HIS 100/50/25 nM; global 1:1 fit;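 note: antibodies loaded at 10 µg/mL, an unrelated mouse-derived antibody served as internal reference, curves fit over association and dissociation phases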
Endpoint: Response

| Binder | Measured result |
| --- | --- |
| 75110_12C19A (antibody, V domains shown, Tested as antibody purified from AlivaMab Mouse hybridoma supernatant (human variable domains, kappa; mouse Fc, captured on anti-mouse IgG Fc sensors); also called ADS75110 purified AMM Ab) VH: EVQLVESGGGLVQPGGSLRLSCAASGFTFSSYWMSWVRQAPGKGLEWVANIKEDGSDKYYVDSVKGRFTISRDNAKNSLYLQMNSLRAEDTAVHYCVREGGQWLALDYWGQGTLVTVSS VL: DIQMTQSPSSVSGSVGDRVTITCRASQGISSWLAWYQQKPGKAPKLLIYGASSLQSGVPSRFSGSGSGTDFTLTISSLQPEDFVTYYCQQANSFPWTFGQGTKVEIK | 0.1 |
| 75110_08G08A (antibody, V domains shown, Tested as antibody purified from AlivaMab Mouse hybridoma supernatant (human variable domains, kappa; mouse Fc, captured on anti-mouse IgG Fc sensors); also called ADS75110 purified AMM Ab) VH: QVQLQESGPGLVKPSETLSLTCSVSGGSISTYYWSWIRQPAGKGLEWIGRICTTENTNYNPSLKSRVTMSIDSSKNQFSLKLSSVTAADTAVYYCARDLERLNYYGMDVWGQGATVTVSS VL: DIQMTQSPSSLSASVGDRVTITCQASQDISNYLNWYQQKPGIAPKLLIYDASNLETGVPSRFSGSGSGTDFTFTISSLQPEDIATYYCQQYDSLPITFGQGTRLEIK | 0.15 |
| 75110_12H17A (antibody, V domains shown, Tested as antibody purified from AlivaMab Mouse hybridoma supernatant (human variable domains, kappa; mouse Fc, captured on anti-mouse IgG Fc sensors); also called ADS75110 purified AMM Ab) VH: EVQLVESGGGLVQPGGSLRLSCAASGFTFSDYWMSWVRQAPGKGLEWVANIKEDGNEKYYVDSVKGRFTISRDNAKNSLFLQMNSLRAEDTAVYYCAREGGQWLALDYWGQGALVTVSS VL: DIQMTQSPSSVSASVGDRVTITCRASQGISSWLAWYQQKPGKAPKFLISGASSLQSGVPSRFTGSGSGTDFTLTISSLQPEDFATYYCQQANSFPWTFGQGTKVEIK | 0.23 |
| 75110_12K21A (antibody, V domains shown, Tested as antibody purified from AlivaMab Mouse hybridoma supernatant (human variable domains, kappa; mouse Fc, captured on anti-mouse IgG Fc sensors); also called ADS75110 purified AMM Ab) VH: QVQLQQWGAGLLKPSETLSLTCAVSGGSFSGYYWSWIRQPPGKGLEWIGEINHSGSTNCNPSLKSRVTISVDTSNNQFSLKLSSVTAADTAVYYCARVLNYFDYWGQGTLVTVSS VL: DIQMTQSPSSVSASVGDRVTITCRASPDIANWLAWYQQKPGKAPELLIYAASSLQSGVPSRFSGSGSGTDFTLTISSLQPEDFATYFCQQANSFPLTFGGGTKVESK | 0.16 |
| 75110_08A13A (antibody, V domains shown, Tested as antibody purified from AlivaMab Mouse hybridoma supernatant (human variable domains, kappa; mouse Fc, captured on anti-mouse IgG Fc sensors); also called ADS75110 purified AMM Ab) VH: EVQLVESGGGLVQPGGSLRLSCAASGFIFSSYWMSWVRQAPGKGLEWVANIKQDGSEKYYMDSVKGRFTISRDNAKNSLYLQMNSLRAEDTAVYYCARDNSYYYYGMDVWGQGTTVTVSS VL: AIQMTQSPSSLSASVGDRVTITCRASQGIRDDLGWYQQKPGKAPKLLIFAASSLQSGVPSSFSGSGSGTDFTLTISSLQPEDFATYYCLHHYNYPYTFGQGTKLEIK | 0.15 |
